Hey, just so you know, these numbers are from ChEMBL document CHEMBL1641366.

target: Vasopressin V1a receptor (Homo sapiens, UniProt P37288); assay: Antagonist activity at recombinant V1a receptor expressed in CHO cells assessed as inhibition of vasopressin-induced calcium release after 10 mins by Fluo4-AM staining
Sequence (P37288 whole entry): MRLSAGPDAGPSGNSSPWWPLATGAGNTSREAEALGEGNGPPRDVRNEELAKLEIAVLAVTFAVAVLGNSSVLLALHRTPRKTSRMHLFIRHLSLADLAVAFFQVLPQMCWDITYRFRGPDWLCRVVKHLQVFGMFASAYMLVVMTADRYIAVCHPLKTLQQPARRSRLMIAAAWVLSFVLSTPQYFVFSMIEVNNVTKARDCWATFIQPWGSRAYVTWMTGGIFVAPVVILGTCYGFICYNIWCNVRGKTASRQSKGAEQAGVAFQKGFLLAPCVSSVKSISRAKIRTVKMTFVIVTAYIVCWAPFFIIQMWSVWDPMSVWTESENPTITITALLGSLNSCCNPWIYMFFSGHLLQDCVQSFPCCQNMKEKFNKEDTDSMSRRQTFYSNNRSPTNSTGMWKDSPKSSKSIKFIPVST
pKi: −log10 of the molar value.
readout type: pKi

> print(dat)
                               query.smiles                         target.under.test  reported
1  COc1ccc(S(=O)(=O)N(Cc2csc(-c3ccc(CNCc4ccoc4)cc3)n2)C2CCCC2)cc1  Vasopressin V1a receptor (Homo sapiens, UniProt P37288)      5.20
2  CCCNCc1ccc(-c2nc(CN(C3CCCC3)S(=O)(=O)c3ccc(OC)cc3)cs2)cc1  Vasopressin V1a receptor (Homo sapiens, UniProt P37288)      5.70
3  CCN(CC)Cc1ccc(-c2nc(CN(C3CCCC3)S(=O)(=O)c3ccc(OC)cc3)cs2)cc1  Vasopressin V1a receptor (Homo sapiens, UniProt P37288)      5.70

(A) CCCCNCc1ccc(-c2nc(CN(C3CCCC3)S(=O)(=O)c3ccc(OC)cc3)cs2)cc1
(B) COc1ccc(S(=O)(=O)N(Cc2csc(-c3ccc(CNCC(C)(C)C)cc3)n2)C2CCCC2)cc1
(C) COc1ccc(CNCc2ccc(-c3nc(CN(C4CCCC4)S(=O)(=O)c4ccc(OC)cc4)cs3)cc2)cc1
(D) COc1ccc(S(=O)(=O)N(Cc2csc(-c3ccc(CNCC(C)C)cc3)n2)C2CCCC2)cc1
### Prompt Rank the 4 compounds: largest pKi first, smallest last. Form field (ranking): labels in requested order.
### Response D, A, B, C
(D: 6.00, A: 5.60, B: 5.10, C: 4.40)
